# measurement-protocol: qHTS RealTime-Glo MT Cell Viability Assay in HEK293 cells - 16 hour (AID 1224872); note: nearly all actives have a fitted effect of over 50% in size
# cond: RealTime-Glo luminescence; series mostly up to 76.8 µM
Results filed as inconclusive are left out. Calls of active or inactive are those of the source. Calls come from the whole dose curve; as a rule, active = well fitted cell-killing curve with a large enough effect in the repeat runs; inconclusive = weak or mixed curves, or effect the other way; inactive = flat fitted curve, though single readings scatter.
Select the matching outcome among 1 for active, -1 for inactive

compound	assigned-label
CCCCCCCCOC(=O)CCCCCCCCC(=O)OCCCCCCCC	-1
Cc1ccc(C)c(N)c1	-1
CN1[C@@H]2CC[C@H]1CC(OC(=O)c1c[nH]c3ccccc13)C2 (stereo partly drawn)	-1

Lookup: Per the assay record, what outcome was assigned to "O=Cc1ccc(O)c(O)c1O" ?
Found: -1

Lookup: Hello, I am checking results. What call was entered for CCC1(C)NC(=O)NC1=O (stereo not drawn) ?
Found: -1

Lookup: Field: outcome | Entry: CC1=C(O)C(=O)OC1C (stereo not drawn)
Found: -1

Lookup: Per the records of this test, what outcome belongs to CCCN(CCC)C(=O)C(CCC(=O)O)NC(=O)c1ccccc1 (stereo not drawn) ?
Found: -1

Lookup: Dear all, I need the recorded test outcome for "CCc1cc2cc(OC)c(OC)cc2c(Cc2ccccc2)n1" , thank you.
Found: 1

* * *

# measurement-protocol: A CellTox Green Cytotoxicity Assay to monitor cytotoxicity in HepG2 cells - 40 hour (AID 1224879); note: nearly all actives have a fitted effect of over 40% in size
# cond: CellTox Green fluorescence; series mostly up to 76.8 µM
Results filed as inconclusive are left out. Activity calls are given as the source filed them. Calls follow the shape of the dose curve; as a rule, active = well fitted activation curve with a large enough effect in the repeat runs; inconclusive = weak or mixed curves; inactive = flat fitted curve, though single readings scatter.
Valid outcomes are listed here; reply with one: T = active, F = inactive

Lookup: Each molecule tested received a call. Report the one for "CC(=O)OC(C)OC(C)=O" .
Found: F

Lookup: Per the assay record, what outcome was assigned to "O=CCCc1ccccc1" ?
Found: F

Lookup: Record request — test call for "OCc1ccccc1O"
Found: F

Lookup: GET /call?item= "CC(C)Nc1nc(N)nc(Cl)n1" returns the recorded outcome of this test.
Found: F

* * *

# subject-of-test: Cytochrome P450 3A4 (Homo sapiens)
# measurement-protocol: Cytochrome P450 Family 3 Subfamily A Member 4 (CYP3A4) small molecule antagonists: luciferase reporter qHTS assay (AID 1671201); note: nearly all actives have a fitted effect of over 50% in size
# cond: P450-Glo CYP3A4 enzyme, luciferin luminescence, 1 h; series mostly up to 115 µM
Results filed as inconclusive are left out. Activity calls are given as the source filed them. Calls come from the whole dose curve; as a rule, active = well fitted inhibition curve with a large enough effect in the repeat runs; inconclusive = weak or mixed curves; inactive = no such curve, though single readings can be large or run the other way.
Answer with one of the outcomes given here: active, inactive

A selection of reference data follows.
structure-as-smiles	assigned-label
C=C(C)C(=O)OCCOP(=O)(O)O	inactive
Nc1ccc(Oc2ccc(N)c(N)c2)cc1	active
CC(=O)O[C@H]1CC[C@@]2(C)C(=CC[C@@H]3[C@@H]2CC[C@]2(C)C(C(C)=O)=CC[C@@H]32)C1	inactive
CCOc1ccccc1N	active
NC/C=C/C(=O)O	inactive

Lookup: For "C[C@]12CCC(=O)C=C1CC[C@@H]1[C@@H]2CC[C@@]2(C)[C@H]1CC[C@]2(O)C(=O)CO" , what call appears in the results of this test?
Found: inactive

* * *

# measurement-protocol: qHTS assay for identifying genotoxic compounds that show differential cytotoxicity against isogenic chicken DT40 cell lines with known DNA damage response pathways - Rad54/Ku70 mutant cell line (AID 743015); note: nearly all actives have a fitted effect of over 60% in size
# cond: DT40 Rad54/Ku70 mutant viability, CellTiter-Glo, 40 h; series mostly up to 66.8 µM
Inconclusive results are not listed. Calls of active or inactive are those of the source. Calls come from the whole dose curve; as a rule, active = well fitted cell-killing curve with a large enough effect in the repeat runs; inconclusive = weak or mixed curves; inactive = no such curve, though single readings can be large or run the other way.
Give one outcome, nothing more. List: active, inactive

See these solved cases before continuing.
molecule	assigned-label
Oc1ccccc1F	inactive
O=c1[nH]cnc2c1ncn2[C@@H]1O[C@H](CO)[C@@H](O)[C@H]1O	inactive
CCCOCCC	inactive
OC[C@H]1O[C@@H](O[C@H]2[C@H](O)[C@@H](O)[C@H](O)O[C@@H]2CO)[C@H](O)[C@@H](O)[C@H]1O	inactive
O=C(O)c1cccc(Cl)c1Cl	inactive

Lookup: Which result was noted for this molecule in the test: "COc1cc(Cl)ccc1Cl"
Found: inactive

Lookup: GET /call?item= CC1=NN(c2cc(Cl)c(S(=O)(=O)O)cc2Cl)C(=O)C1N=Nc1ccc(S(=O)(=O)O)cc1 (stereo unspecified) returns the recorded outcome of this test.
Found: inactive

Lookup: For "Nc1ccc2ccccc2c1S(=O)(=O)O" , which call appears in the assay record?
Found: inactive
